Tested on: biotinyl-Val-oxazolone
measurement-notes: self-aminoacylation, catalytic enhancement (BVO) (fold over background); higher = more active; k-Seq, kA / k0A0; sequences stand for … in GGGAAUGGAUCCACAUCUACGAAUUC…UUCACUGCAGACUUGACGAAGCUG
Variants at the floor of the assay were thinned out.
reported-property: self-aminoacylation
# answer = number (no unit)

Examples with answers:
>>> numeric_result("AUGACCCUGGUCAUCUAGUGA [Fam2.1 aminoacylation ribozyme variant]")
3.7
>>> numeric_result("AGUCACCUAGGUCACCGGGUG [Fam2.2 aminoacylation ribozyme variant]")
4.47
>>> numeric_result("CUACUUUAACCAAUCGGUCUG [Fam1A.1 aminoacylation ribozyme variant]")
0.842
>>> numeric_result("CUACUUCACACAAUCGAUCUG [Fam1A.1 aminoacylation ribozyme variant]")
0.677
>>> numeric_result("AAGUUUGCUAUUAGUCGAAAG [Fam3.1 aminoacylation ribozyme variant]")
0.834

Req: Which self-aminoacylation value is on record for CCACACUUCAAACAAUCAGUC [Fam1B.1 aminoacylation ribozyme variant] ?
Resp: 1.06

Req: // returns reported self-aminoacylation for input AUUGCCCUGUUCAUCGAGUGA [Fam2.1 aminoacylation ribozyme variant]
Resp: 4.12

Req: Entry AAGUUUGCUAAUAGAGGCAAG [Fam3.1 aminoacylation ribozyme variant] has what self-aminoacylation?
Resp: 0.733

Req: Param item = AUUACCCUGGUCAUCGUGGGA [Fam2.1 aminoacylation ribozyme variant] ; retrieve measured self-aminoacylation.
Resp: 1.22

* * *

Test system: biotinyl-Val-oxazolone
measurement-notes: self-aminoacylation, catalytic enhancement (BVO) (fold over background); higher = more active; k-Seq, kA / k0A0; sequences stand for … in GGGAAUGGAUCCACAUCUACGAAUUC…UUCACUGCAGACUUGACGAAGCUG
This sample holds only a part of the variants without activity.
Reported self-aminoacylation values for the following sequences.
Respond with the number and no other words.

Req: What value of measured self-aminoacylation is listed for AUUCACCUAGAUCAUCUGGUG [Fam2.2 aminoacylation ribozyme variant] ?
Resp: 1.73

Req: Please look up its self-aminoacylation: AUAACCCUAGUCAUCGAGUGA [Fam2.1 aminoacylation ribozyme variant]
Resp: 2.97

Req: Would you mind telling me what self-aminoacylation value was observed for AAGUUCGCUAAUAGUCGCUAG [Fam3.1 aminoacylation ribozyme variant] ?
Resp: 1.4

Req: Given the entry AUUACCCUGGUCACCGUGUGA [Fam2.1 aminoacylation ribozyme variant] , report its measured self-aminoacylation.
Resp: 2.06

Req: Entry under review: CUCCUUCAACCAAUCGGUCUG [Fam1A.1 aminoacylation ribozyme variant] . Reported self-aminoacylation?
Resp: 1.16

Req: Can you look up the measured self-aminoacylation of AUUCACCUAGGGCGUCGGGUG [Fam2.2 aminoacylation ribozyme variant] for me?
Resp: 1.84

Req: Fill blank: measured self-aminoacylation of the sequence AUACUUCAAACAAGCGGUCUG [Fam1A.1 aminoacylation ribozyme variant] is ____.
Resp: 0.986

Req: Give the measured self-aminoacylation of AAUACCCUGGUUAUCGAGUGA [Fam2.1 aminoacylation ribozyme variant] .
Resp: 3.59

Req: Given the sequence AUAACCCUGGUCAUCUAGUGA [Fam2.1 aminoacylation ribozyme variant] , what is its reported self-aminoacylation?
Resp: 4.77

* * *

self-aminoacylation: recorded values
Test system: biotinyl-Trp-oxazolone
measurement-notes: self-aminoacylation, catalytic enhancement (BWO) (fold over background); higher = more active; k-Seq, kA / k0A0; sequences stand for … in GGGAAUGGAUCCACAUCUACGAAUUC…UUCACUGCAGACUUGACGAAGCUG
This sample holds only a part of the variants without activity.

>>> result("AUUACCCUGGUUAACGAGUGA [Fam2.1 aminoacylation ribozyme variant]")
17.3
>>> result("AUUUCCCUGGCCAUCGAGUGA [Fam2.1 aminoacylation ribozyme variant]")
3.3
>>> result("AUUAACGUGGUCAUCGAGUGA [Fam2.1 aminoacylation ribozyme variant]")
6.07

Req: Item: AUUUACCUAUGUCAUCGGGUG [Fam2.2 aminoacylation ribozyme variant] Test system: biotinyl-Trp-oxazolone Read-out: self-aminoacylation Value: ?
Resp: 4.76

Req: Observed self-aminoacylation on biotinyl-Trp-oxazolone for AAGUUUGCUAAUCGUCGCAUG [Fam3.1 aminoacylation ribozyme variant] , please.
Resp: 0.804

Req: Checklist item: self-aminoacylation tested on biotinyl-Trp-oxazolone, entry AAGCCUGCUAAUAGUCGCAAG [Fam3.1 aminoacylation ribozyme variant] , value?
Resp: 11.1

Req: Form: Entry = AUUACCCUGGUGAUGGAGUGA [Fam2.1 aminoacylation ribozyme variant] | System = biotinyl-Trp-oxazolone | self-aminoacylation = ____
Resp: 5.69

Req: Form: Entry = AUUACCCUGGUCAUCGAGCGA [Fam2.1 aminoacylation ribozyme variant] | System = biotinyl-Trp-oxazolone | self-aminoacylation = ____
Resp: 3.33

Req: Record lookup: for biotinyl-Trp-oxazolone, what self-aminoacylation belongs to AAGUUUGCUAAUAGGCGCGAG [Fam3.1 aminoacylation ribozyme variant] ?
Resp: 1.42

Req: Find the measured self-aminoacylation: item AUUCGCCUAGGUCAUCGUGUG [Fam2.2 aminoacylation ribozyme variant] , target or system biotinyl-Trp-oxazolone.
Resp: 0.823

Req: Fill in the recorded self-aminoacylation for this sequence, with biotinyl-Trp-oxazolone as test system: CUACUUCAAACCAACGGUCUG [Fam1A.1 aminoacylation ribozyme variant]
Resp: 0.556

Req: Provide the documented self-aminoacylation with biotinyl-Trp-oxazolone as the system for CUACUUCAAACAAUCGGACUU [Fam1A.1 aminoacylation ribozyme variant]
Resp: 1.07

Req: // map CCACUUCAGACAAUCGGUCUG [Fam1A.1 aminoacylation ribozyme variant] to recorded self-aminoacylation (system: biotinyl-Trp-oxazolone)
Resp: 1.71

Req: API: value(readout= self-aminoacylation, system= biotinyl-Trp-oxazolone, query= AUGACGCUGGUCAUCGAGUGA [Fam2.1 aminoacylation ribozyme variant] )
Resp: 7.12

Req: Record lookup: for biotinyl-Trp-oxazolone, what self-aminoacylation belongs to CCCCACUUCAAGCAAUGGGUC [Fam1B.1 aminoacylation ribozyme variant] ?
Resp: 1.96

Req: Any idea what self-aminoacylation came out for AAGGUUGCUCAUAGUCGCAAG [Fam3.1 aminoacylation ribozyme variant] on biotinyl-Trp-oxazolone?
Resp: 1.5

Req: What reported self-aminoacylation corresponds to CCACACUUCGAGCAAUCGGUG [Fam1B.1 aminoacylation ribozyme variant] on biotinyl-Trp-oxazolone?
Resp: 2.07

Req: Give the reported self-aminoacylation for AUUACCCUCGUCAUCUAGUGA [Fam2.1 aminoacylation ribozyme variant] (system: biotinyl-Trp-oxazolone).
Resp: 4.43

* * *

Test system: biotinyl-Phe-oxazolone
measurement-notes: self-aminoacylation, catalytic enhancement (BFO) (fold over background); higher = more active; k-Seq, kA / k0A0; sequences stand for … in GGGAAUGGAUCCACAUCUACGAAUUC…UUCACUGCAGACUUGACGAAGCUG
This sample holds only a part of the variants without activity.
reported-property: self-aminoacylation

>>> result("CUAAUUCAAACAGUCGGUCUG [Fam1A.1 aminoacylation ribozyme variant]")
0.62

Req: Name the recorded self-aminoacylation for AUUCACCUAGGACAUCUGGUG [Fam2.2 aminoacylation ribozyme variant] .
Resp: 8.71

Req: So what does the record say about self-aminoacylation for AAGUUUGCUAAUAAUUGCAAG [Fam3.1 aminoacylation ribozyme variant] ?
Resp: 1.1

Req: Recorded self-aminoacylation for AUCACCCUGGUCAUCCAGUGA [Fam2.1 aminoacylation ribozyme variant] , please?
Resp: 41.2

Req: If you can, please state the reported self-aminoacylation value of AAGUUUGCGUAUAGUCGCAAG [Fam3.1 aminoacylation ribozyme variant] .
Resp: 1.22

Req: Suppose we examine the sequence AUUCACCAAGGUCAACGGGUG [Fam2.2 aminoacylation ribozyme variant] ; what self-aminoacylation value has been reported?
Resp: 42.5

Req: Given CCAGACUUCAAGCAAUCUGUC [Fam1B.1 aminoacylation ribozyme variant] , state its recorded self-aminoacylation.
Resp: 0.591

Req: Give its self-aminoacylation value. Item: AUGCACCCAGGUCAUCGGGUG [Fam2.2 aminoacylation ribozyme variant]
Resp: 21

Req: Using the record for CCACACUCCAAGCAGUCGGUC [Fam1B.1 aminoacylation ribozyme variant] , report its self-aminoacylation.
Resp: 0.733

Req: Which measured self-aminoacylation value corresponds to CCGCACUUCAAACAAUCGGUC [Fam1B.1 aminoacylation ribozyme variant] ?
Resp: 157

* * *

Test system: biotinyl-Trp-oxazolone
measurement-notes: self-aminoacylation, catalytic enhancement (BWO) (fold over background); higher = more active; k-Seq, kA / k0A0; sequences stand for … in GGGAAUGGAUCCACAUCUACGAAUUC…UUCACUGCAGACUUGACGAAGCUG
Fewer inactive variants are shown than the library holds.
Use 5 as the dividing line for self-aminoacylation, with the line itself on the Criterion met side and lower values as Criterion not met.

Sample answers from the record:
>>> classification("UCACAGUUCAAGCAAUCGGUC [Fam1B.1 aminoacylation ribozyme variant]")
"Criterion not met"
>>> classification("CUACUGCAAAAAAUCGGUCUG [Fam1A.1 aminoacylation ribozyme variant]")
"Criterion not met"
>>> classification("AUUCGCAUAGGUCAUCGGGUG [Fam2.2 aminoacylation ribozyme variant]")
"Criterion met"

Req: Decide: is the reported value of self-aminoacylation for AUUUACCUAGGUCAUCCGGUG [Fam2.2 aminoacylation ribozyme variant] equal to or greater than 5?
Resp: Criterion not met

Req: hey, is self-aminoacylation for this one >= 5? CUACUUCAAACGAUCCGUCUG [Fam1A.1 aminoacylation ribozyme variant]
Resp: Criterion not met

Req: For this sequence, is measured self-aminoacylation 5 or higher? AUUCACCUGGGUCCUCGGGUG [Fam2.2 aminoacylation ribozyme variant]
Resp: Criterion met

Req: self-aminoacylation >= 5 for ACACUCUUCAAGCAAUCGGUC [Fam1B.1 aminoacylation ribozyme variant] ?
Resp: Criterion not met

Req: For this sequence, is measured self-aminoacylation 5 or higher? AUUCACCUGGGUCAUCAGGUG [Fam2.2 aminoacylation ribozyme variant]
Resp: Criterion not met

Req: Check if self-aminoacylation >= 5 (inclusive). Item: AGGUUUGGUAAUAGUCGCAAG [Fam3.1 aminoacylation ribozyme variant]
Resp: Criterion not met

Req: Identify whether the reported self-aminoacylation of the following sequence is 5 or greater: CUACUUCAAACAAACGGUCGG [Fam1A.1 aminoacylation ribozyme variant]
Resp: Criterion not met

Req: Decide: self-aminoacylation of CUACUUCACAAAAUCGGUCUG [Fam1A.1 aminoacylation ribozyme variant] >= 5?
Resp: Criterion not met

Req: Test whether the sequence CAGUUAGCUAAUAGUCGCAAG [Fam3.1 aminoacylation ribozyme variant] records self-aminoacylation of 5 or higher.
Resp: Criterion not met

Req: Dear colleague, could you confirm whether CCAAACUUCAACCAAUCGGUC [Fam1B.1 aminoacylation ribozyme variant] has self-aminoacylation at or above 5?
Resp: Criterion met

Req: Could you verify whether the entry AGUCACCUAGGUCAUCGCGUG [Fam2.2 aminoacylation ribozyme variant] shows self-aminoacylation of no less than 5?
Resp: Criterion met

Req: Textbook exercise: given the entry AUUAUCCUGGUCAUCGAGUAA [Fam2.1 aminoacylation ribozyme variant] , state whether its self-aminoacylation is greater than or equal to 5.
Resp: Criterion not met

Req: State whether the measured self-aminoacylation reaches 5, counting equality as reaching it, for AUGACCCUGCUCAUCGAGUGA [Fam2.1 aminoacylation ribozyme variant]
Resp: Criterion not met

Req: Decide: is the reported value of self-aminoacylation for AUUUCCCUGGUCAUCGAAUGA [Fam2.1 aminoacylation ribozyme variant] equal to or greater than 5?
Resp: Criterion not met

Req: Identify whether the reported self-aminoacylation of the following sequence is 5 or greater: AUUACCCUGGUCGUCGAAUGA [Fam2.1 aminoacylation ribozyme variant]
Resp: Criterion not met

Req: Quick check, self-aminoacylation >= 5? GUUCAACUAGGUCAUCGGGUG [Fam2.2 aminoacylation ribozyme variant]
Resp: Criterion met

Req: Is self-aminoacylation at least 5? Consider AUUUCCCUGGUCAUCGAUUGA [Fam2.1 aminoacylation ribozyme variant]
Resp: Criterion not met
